Just for reference, patent US20250163056A1 is where these values come from.

assay: Photostability, percentage remaining undegraded under illumination or in the dark; conditions: percentage remaining undegraded after 4 hours illumination
Please go through the items and note down their Photostability 4 hours.
Give the value, in units of %, as a plain number.

input: Tell me the measured Photostability 4 hours of COc1ccc(N2CC[C@@]3(O)C(=O)c4cc(F)c(C)cc4N=C23)cc1 [BPN-0026605] , please.
output: 69.6

input: Then this compound: Cc1nc2cc(N3CC[C@@]4(O)C(=O)c5cc(C)c(C)cc5N=C34)ccc2o1 [BPN-0027118]
output: 68.6

input: Okay, and Cc1cc2c(cc1C)C(=O)[C@]1(O)CCN(c3ccc4ncsc4c3)C1=N2 [BPN-0027122] ?
output: 69.5
